Biological target: Full-length KDM5B enzyme (Homo sapiens, UniProt Q9UGL1)
Construct: recombinant protein from baculovirus-transfected Sf21 cells: full-length KDM5B; MW=176.825 kDa; host or cells: baculovirus-transfected Sf21 insect cells
Sequence (Q9UGL1 whole entry): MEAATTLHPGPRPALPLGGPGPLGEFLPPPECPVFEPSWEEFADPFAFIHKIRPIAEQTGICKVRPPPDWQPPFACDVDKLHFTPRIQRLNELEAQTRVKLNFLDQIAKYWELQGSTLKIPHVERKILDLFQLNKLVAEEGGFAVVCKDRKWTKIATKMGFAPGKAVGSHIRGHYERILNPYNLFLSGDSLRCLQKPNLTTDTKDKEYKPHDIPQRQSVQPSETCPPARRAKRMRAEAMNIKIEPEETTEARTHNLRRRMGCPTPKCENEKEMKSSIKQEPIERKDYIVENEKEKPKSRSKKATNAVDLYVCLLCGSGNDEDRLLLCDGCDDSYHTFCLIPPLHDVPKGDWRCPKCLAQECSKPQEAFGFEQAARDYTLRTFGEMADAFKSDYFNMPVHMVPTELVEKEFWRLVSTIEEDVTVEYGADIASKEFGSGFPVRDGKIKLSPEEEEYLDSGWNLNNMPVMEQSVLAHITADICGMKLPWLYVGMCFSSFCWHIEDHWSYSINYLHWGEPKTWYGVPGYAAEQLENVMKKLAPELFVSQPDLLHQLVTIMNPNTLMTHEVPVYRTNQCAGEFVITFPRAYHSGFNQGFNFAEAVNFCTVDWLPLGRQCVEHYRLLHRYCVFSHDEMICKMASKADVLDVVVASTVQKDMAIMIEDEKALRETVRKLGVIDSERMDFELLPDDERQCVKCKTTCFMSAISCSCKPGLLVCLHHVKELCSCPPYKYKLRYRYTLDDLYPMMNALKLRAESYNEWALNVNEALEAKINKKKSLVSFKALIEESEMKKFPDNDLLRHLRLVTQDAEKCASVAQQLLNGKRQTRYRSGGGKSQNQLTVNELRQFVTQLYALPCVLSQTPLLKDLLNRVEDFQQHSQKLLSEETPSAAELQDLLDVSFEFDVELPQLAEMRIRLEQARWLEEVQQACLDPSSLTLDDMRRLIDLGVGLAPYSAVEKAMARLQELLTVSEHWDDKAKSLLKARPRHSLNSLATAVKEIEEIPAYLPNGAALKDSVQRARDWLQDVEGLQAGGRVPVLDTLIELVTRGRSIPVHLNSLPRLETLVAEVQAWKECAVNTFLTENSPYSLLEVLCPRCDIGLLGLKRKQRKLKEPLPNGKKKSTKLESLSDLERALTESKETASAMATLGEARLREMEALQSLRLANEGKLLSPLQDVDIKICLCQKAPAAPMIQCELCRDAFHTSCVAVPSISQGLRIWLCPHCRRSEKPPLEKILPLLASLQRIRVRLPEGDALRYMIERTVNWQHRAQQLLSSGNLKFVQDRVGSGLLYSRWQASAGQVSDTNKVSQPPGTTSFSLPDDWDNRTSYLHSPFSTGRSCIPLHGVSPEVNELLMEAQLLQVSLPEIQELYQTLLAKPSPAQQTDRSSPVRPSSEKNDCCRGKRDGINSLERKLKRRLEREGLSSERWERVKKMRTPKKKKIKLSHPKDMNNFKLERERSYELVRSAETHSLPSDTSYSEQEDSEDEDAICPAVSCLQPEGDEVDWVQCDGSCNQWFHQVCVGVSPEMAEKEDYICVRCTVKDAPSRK
Test: KDM5B TR-FRET Enzyme Activity Assay (LANCE)
Assay type: biochemical
Protocol: KDM5B TR-FRET Enzyme Activity Assay KDM5B enzymatic activity was determined with the LANCE (Lanthanide Chelate Excite) TR-FRET (Time-resolved fluorescence resonance energy transfer) assay. […] After 60 minutes incubation with detection reagents, reaction plates were read on a PerkinElmer EnVision plate reader using standard TR-FRET protocol. […]
value-kind: IC50

entry-smiles | value-kind | result
Cc1nc2[nH]c(-c3ccccc3)cc(=O)n2n1 | IC50 | 7.64 µM
CCCCc1c(C)[nH]c2nc(C)nn2c1=O | IC50 | > 100 µM
Cc1nc2[nH]c(C(F)(F)C(F)(F)F)cc(=O)n2n1 | IC50 | > 100 µM
Cc1[nH]c2nc(-c3ccco3)nn2c(=O)c1C(C)C | IC50 | > 100 µM
Cc1[nH]c2nc(C(C)C)nn2c(=O)c1C(C)C | IC50 | 35.4 µM
Cc1nc2[nH]c(-c3ccc(Cl)cc3)cc(=O)n2n1 | IC50 | 14.2 µM
Cc1[nH]c2nc(C3CC(F)(F)C3)nn2c(=O)c1C(C)C | IC50 | > 100 µM
Cc1nc2[nH]c(C)c(Cc3ccccc3)c(=O)n2n1 | IC50 | > 100 µM
Cc1nc2[nH]c(C)c(C3CCCC3)c(=O)n2n1 | IC50 | > 100 µM
Cc1[nH]c2nc(-c3ccccn3)nn2c(=O)c1C(C)C | IC50 | > 100 µM
